All figures here come from paper PMC8523698.

# Assayed Target: UniProtKB P05177
# Sequence (P05177 1-516): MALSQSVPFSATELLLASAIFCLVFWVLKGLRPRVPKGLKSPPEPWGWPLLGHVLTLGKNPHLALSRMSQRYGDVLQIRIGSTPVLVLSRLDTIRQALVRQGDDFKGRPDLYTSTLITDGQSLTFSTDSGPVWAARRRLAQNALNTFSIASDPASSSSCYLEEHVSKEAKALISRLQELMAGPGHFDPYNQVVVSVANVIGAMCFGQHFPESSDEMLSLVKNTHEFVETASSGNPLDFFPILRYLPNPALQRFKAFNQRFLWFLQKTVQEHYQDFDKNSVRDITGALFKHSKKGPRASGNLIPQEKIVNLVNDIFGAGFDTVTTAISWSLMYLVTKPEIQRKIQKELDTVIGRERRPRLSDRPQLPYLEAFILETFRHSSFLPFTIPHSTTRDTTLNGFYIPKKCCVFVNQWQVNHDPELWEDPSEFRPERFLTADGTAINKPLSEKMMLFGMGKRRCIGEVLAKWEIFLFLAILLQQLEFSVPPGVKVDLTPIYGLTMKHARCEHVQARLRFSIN
# Test Name: Reversible CYP inhibition in human liver microsomes
# Setup Conditions: human, microsomes, pH 7.4, Percent of Control Activity, CYP 1A2, 1 µM, Zero-Minute Preincubation
Observed Property: activity at 1 µM (%)
Numeric answer only, unit % assumed.

Reported activity at 1 µM, molecule `COc1cccc2[nH]c(C(=O)N[C@@H](CC(C)C)C(=O)N[C@@H](C[C@@H]3CCNC3=O)C(=O)COP(=O)(O)O)cc12` : ____
99.4

###

# Test Name: Solubility measurement
# Setup Conditions: deionized water and pH buffers (aqueous)
Observed Property: solubility at 48 h (mg/mL)
Numeric answer only, unit mg/mL assumed.

Reported solubility at 48 h, compound COc1cccc2[nH]c(C(=O)N[C@@H](CC(C)C)C(=O)N[C@@H](C[C@@H]3CCNC3=O)C(=O)COP(=O)(O)O)cc12 [PF-07304814] : ____
200

###

# Assayed Target: CYP2D6 (Homo sapiens, UniProt P10635)
# Sequence (P10635 whole entry): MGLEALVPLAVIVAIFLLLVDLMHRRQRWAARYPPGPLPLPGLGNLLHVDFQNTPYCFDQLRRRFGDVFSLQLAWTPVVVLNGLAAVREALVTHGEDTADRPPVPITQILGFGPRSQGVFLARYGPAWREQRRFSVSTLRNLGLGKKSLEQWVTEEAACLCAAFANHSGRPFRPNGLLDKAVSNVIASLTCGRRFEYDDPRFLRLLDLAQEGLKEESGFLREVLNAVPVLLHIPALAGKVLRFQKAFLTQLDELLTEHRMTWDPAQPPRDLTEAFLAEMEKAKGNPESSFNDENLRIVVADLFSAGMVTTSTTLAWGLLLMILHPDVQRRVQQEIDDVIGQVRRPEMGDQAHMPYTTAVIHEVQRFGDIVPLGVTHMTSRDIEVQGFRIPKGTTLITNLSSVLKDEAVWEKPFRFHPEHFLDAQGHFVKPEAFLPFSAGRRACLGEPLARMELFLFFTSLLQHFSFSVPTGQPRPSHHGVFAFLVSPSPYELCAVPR
# Test Name: Reversible CYP inhibition in human liver microsomes
# Setup Conditions: human, microsomes, pH 7.4, Percent of Control Activity, CYP 2D6, 20.5 µM, 30-Minute Preincubation
Observed Property: activity at 20.5 µM

I'm curious: which activity at 20.5 µM was measured for COc1cccc2[nH]c(C(=O)N[C@@H](CC(C)C)C(=O)N[C@@H](C[C@@H]3CCNC3=O)C(=O)CO)cc12 [PF-00835231] tested on CYP2D6 (Homo sapiens, UniProt P10635)?
118%

###

# Tested on: CYP3A4/5
# Test Name: in vitro
# Setup Conditions: human, microsomes, pH 7.4, Percent of Control Activity, CYP 3A4/5 (mdz), 0.1 µM, 30-Minute Preincubation
Observed Property: activity at 0.1 µM (%)
Numeric answer only, unit % assumed.

Reported activity at 0.1 µM, compound `COc1cccc2[nH]c(C(=O)N[C@@H](CC(C)C)C(=O)N[C@@H](C[C@@H]3CCNC3=O)C(=O)CO)cc12` : ____
97.8

###

# Assayed Target: HKU9-CoV 3CL^pro (Bat coronavirus HKU9, UniProt P0C6W5)
# Sequence (P0C6W5 3104-3409 limits assumed): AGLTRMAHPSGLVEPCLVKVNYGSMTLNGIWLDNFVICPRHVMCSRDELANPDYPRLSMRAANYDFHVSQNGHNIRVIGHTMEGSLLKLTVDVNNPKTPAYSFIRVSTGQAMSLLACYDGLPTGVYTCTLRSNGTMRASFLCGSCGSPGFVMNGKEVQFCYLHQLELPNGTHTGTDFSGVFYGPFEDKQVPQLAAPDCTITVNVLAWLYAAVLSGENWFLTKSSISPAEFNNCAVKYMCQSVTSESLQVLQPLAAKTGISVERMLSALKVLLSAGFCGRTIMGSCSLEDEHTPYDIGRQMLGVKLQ
Observed Property: pKi
Please keep in mind that pKi is minus log10 of the molar concentration; only the number is needed.

I'm curious: which pKi was measured for `COc1cccc2[nH]c(C(=O)N[C@@H](CC(C)C)C(=O)N[C@@H](C[C@@H]3CCNC3=O)C(=O)CO)cc12` tested on HKU9-CoV 3CL^pro (Bat coronavirus HKU9, UniProt P0C6W5)?
9.13
